# Tested on: SNB-75
# Assay Explanation: NCI tumour cell line growth inhibition, 48 h
Structures can show the parent of a compound that is named as a salt. Calls of active or inactive are those of the source. No stated cut-off is given here; in the data, active = GI50 up to about 1.1 µM and inactive = higher.
Please state which outcome applies, choosing from active, inactive

Outcome logged for Clc1ccccc1CN1COc2c(ccc3cccnc23)C1 in this assay:
inactive

Outcome logged for CC1(C)C(c2ccccc2)C12CCC1(C2=O)C(c2ccccc2)C1(C)C (configuration not stated) in this assay:
inactive

Outcome logged for Cc1ccc(NC(=O)C2C3C=CC(O3)C2C(=O)O)cc1 (configuration not stated) in this assay:
inactive

Outcome logged for CC(C)(C)c1cc(-c2c3nc(c(-c4cc(C(C)(C)C)cc(C(C)(C)C)c4)c4ccc([nH]4)c(-c4cc(C(C)(C)C)cc(C(C)(C)C)c4)c4nc(c(-c5cc(C(C)(C)C)cc(C(C)(C)C)c5)c5ccc2[nH]5)C=C4)C=C3)cc(C(C)(C)C)c1 in this assay:
inactive

Outcome logged for O=C(/C=C/c1ccccc1O)c1cccc2ccccc12 in this assay:
inactive

Outcome logged for CC[C@]1(O)C[C@H]2CN(CCc3c([nH]c4ccccc34)[C@@](C(=O)OC)(c3cc4c(cc3OC)N(C=O)[C@H]3[C@@](O)(C(=O)OC)[C@H](OC(C)=O)[C@]5(CC)C=CCN6CC[C@]43[C@@H]65)C2)C1 [VINCRISTINE SULFATE] in this assay:
active

Outcome logged for O=C1/C(=C\c2cccc(Oc3ccccc3)c2)S(=O)(=O)C(c2ccccc2)N1c1ccccc1Cl (configuration not stated) in this assay:
inactive
